measured_target: E. coli (EcFtsZ) (Escherichia coli, UniProt P0A9A6)
Sequence (P0A9A6 whole entry): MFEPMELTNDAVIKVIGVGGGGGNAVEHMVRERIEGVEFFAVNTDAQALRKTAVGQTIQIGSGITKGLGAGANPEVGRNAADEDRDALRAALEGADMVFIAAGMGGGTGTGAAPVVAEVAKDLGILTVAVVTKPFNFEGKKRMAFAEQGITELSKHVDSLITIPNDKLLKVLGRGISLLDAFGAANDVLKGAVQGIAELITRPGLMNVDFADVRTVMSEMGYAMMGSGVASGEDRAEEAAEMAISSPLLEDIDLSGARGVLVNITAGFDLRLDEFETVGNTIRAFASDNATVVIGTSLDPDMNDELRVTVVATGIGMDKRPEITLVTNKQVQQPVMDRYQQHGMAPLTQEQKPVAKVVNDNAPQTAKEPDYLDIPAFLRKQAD
experiment_description: Fluorescence anisotropy binding of BOFP to EcFtsZ
condition_parameters: 25 °C; 50 mM Tris-HCl (pH 7.6), 50 mM KCl; 0.1 µM BOFP; read-out: Kd - 25 °C
Procedure: Fluorescence anisotropy experiments were performed using an AVIV model ATF105 spectrofluorometer at 15, 25, or 37 °C. […] After each protein addition, the samples were equilibrated for 3 minutes, whereupon the fluorescence anisotropy was measured. […] The binding free energy (ΔG) at temperature T was derived from the corresponding Kd value determined at T using the following relationship:2 ΔG=−RTln(1/Kd) […]
pKd: −log10 of the molar value.
reported_metric: pKd

>>> value_measured("CC1=CC(C)=[N+]2C1=Cc1ccc(CCC(=O)OCC(Oc3ccc(F)c(C(N)=O)c3F)c3nc(-c4ccc(C(F)(F)F)cc4)c(Br)o3)n1[B-]2(F)F (stereo not shown) [BOFP]")
6.55

----------
measured_target: P. aeruginosa (PaFtsZ) (Pseudomonas aeruginosa, UniProt P47204)
Construct: 6xHis (C); made in house; host or cells: E. coli BLR (DE3), pET-22b(+)
Sequence (P47204 whole entry): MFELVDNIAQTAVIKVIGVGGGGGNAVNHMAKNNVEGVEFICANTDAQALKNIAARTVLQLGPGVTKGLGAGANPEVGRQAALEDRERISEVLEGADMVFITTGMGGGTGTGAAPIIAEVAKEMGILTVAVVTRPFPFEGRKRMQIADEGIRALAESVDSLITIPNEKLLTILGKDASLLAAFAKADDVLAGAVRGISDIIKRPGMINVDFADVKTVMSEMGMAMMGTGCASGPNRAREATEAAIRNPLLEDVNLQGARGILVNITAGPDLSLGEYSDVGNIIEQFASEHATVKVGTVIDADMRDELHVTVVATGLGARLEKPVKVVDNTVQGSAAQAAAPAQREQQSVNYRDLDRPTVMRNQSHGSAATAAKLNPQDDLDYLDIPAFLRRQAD
experiment_description: Fluorescence anisotropy binding of BOFP to PaFtsZ
condition_parameters: 25 °C; 50 mM Tris-HCl (pH 7.6), 50 mM KCl; 0.1 µM BOFP; read-out: Kd - 25 °C
pKd: −log10 of the molar value.
reported_metric: pKd

>>> value_measured("CC1=CC(C)=[N+]2C1=Cc1ccc(CCC(=O)OCC(Oc3ccc(F)c(C(N)=O)c3F)c3nc(-c4ccc(C(F)(F)F)cc4)c(Br)o3)n1[B-]2(F)F (stereo not shown)")
6.44

----------
measured_target: E. coli (EcFtsZ) (Escherichia coli, UniProt P0A9A6)
experiment_description: Fluorescence anisotropy binding of BOFP to EcFtsZ
condition_parameters: 37 °C; 50 mM Tris-HCl (pH 7.6), 50 mM KCl; 0.1 µM BOFP; read-out: Kd - 37 °C
pKd: −log10 of the molar value.
reported_metric: pKd

>>> value_measured("CC1=CC(C)=[N+]2C1=Cc1ccc(CCC(=O)OCC(Oc3ccc(F)c(C(N)=O)c3F)c3nc(-c4ccc(C(F)(F)F)cc4)c(Br)o3)n1[B-]2(F)F (stereo not shown)")
6.36

----------
measured_target: S. pneumoniae (SpnFtsZ) (Streptococcus pneumoniae)
experiment_description: Fluorescence anisotropy binding of BOFP to SpnFtsZ
condition_parameters: 15 °C; 50 mM Tris-HCl (pH 7.6), 50 mM KCl; 0.1 µM BOFP; read-out: Kd - 15 °C
reported_metric: Kd (µM)

>>> value_measured("CC1=CC(C)=[N+]2C1=Cc1ccc(CCC(=O)OCC(Oc3ccc(F)c(C(N)=O)c3F)c3nc(-c4ccc(C(F)(F)F)cc4)c(Br)o3)n1[B-]2(F)F (stereo not shown)")
3.02

----------
measured_target: S. pyogenes (SpyFtsZ) (Streptococcus pyogenes, UniProt Q99YV7)
Sequence (Q99YV7 entry or part of it): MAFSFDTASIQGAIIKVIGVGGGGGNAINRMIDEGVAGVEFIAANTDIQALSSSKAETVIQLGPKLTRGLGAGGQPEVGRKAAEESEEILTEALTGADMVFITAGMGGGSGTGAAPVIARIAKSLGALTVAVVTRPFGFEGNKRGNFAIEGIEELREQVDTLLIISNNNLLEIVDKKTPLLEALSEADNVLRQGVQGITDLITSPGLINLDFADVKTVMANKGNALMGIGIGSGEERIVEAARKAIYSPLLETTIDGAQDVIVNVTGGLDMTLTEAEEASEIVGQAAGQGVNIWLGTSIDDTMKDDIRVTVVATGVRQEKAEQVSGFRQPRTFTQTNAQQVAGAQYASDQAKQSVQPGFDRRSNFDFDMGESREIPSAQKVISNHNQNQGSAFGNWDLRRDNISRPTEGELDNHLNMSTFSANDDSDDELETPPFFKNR
experiment_description: Fluorescence anisotropy binding of BOFP to SpyFtsZ
condition_parameters: 25 °C; 50 mM Tris-HCl (pH 7.6), 50 mM KCl; 0.1 µM BOFP; read-out: Kd - 25 °C
pKd: −log10 of the molar value.
reported_metric: pKd

>>> value_measured("CC1=CC(C)=[N+]2C1=Cc1ccc(CCC(=O)OCC(Oc3ccc(F)c(C(N)=O)c3F)c3nc(-c4ccc(C(F)(F)F)cc4)c(Br)o3)n1[B-]2(F)F (stereo not shown) [BOFP]")
5.88

----------
measured_target: A. baumannii (AbFtsZ) (Acinetobacter baumannii, UniProt V5V8B6)
Sequence (V5V8B6 1-391): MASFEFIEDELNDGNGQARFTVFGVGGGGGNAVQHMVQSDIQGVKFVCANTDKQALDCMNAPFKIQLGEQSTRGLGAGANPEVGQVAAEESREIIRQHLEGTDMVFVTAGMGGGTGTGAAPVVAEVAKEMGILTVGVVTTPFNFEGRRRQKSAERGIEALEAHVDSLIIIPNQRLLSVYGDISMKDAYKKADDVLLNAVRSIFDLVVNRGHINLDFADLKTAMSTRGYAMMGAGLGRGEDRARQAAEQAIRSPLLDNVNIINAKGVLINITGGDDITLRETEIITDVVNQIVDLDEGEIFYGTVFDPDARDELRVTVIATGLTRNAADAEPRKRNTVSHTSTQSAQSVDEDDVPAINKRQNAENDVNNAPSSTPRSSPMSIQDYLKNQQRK
experiment_description: Fluorescence anisotropy binding of BOFP to AbFtsZ
condition_parameters: 37 °C; 50 mM Tris-HCl (pH 7.6), 50 mM KCl; 0.1 µM BOFP; read-out: Kd - 37 °C
pKd: −log10 of the molar value.
reported_metric: pKd

>>> value_measured("CC1=CC(C)=[N+]2C1=Cc1ccc(CCC(=O)OCC(Oc3ccc(F)c(C(N)=O)c3F)c3nc(-c4ccc(C(F)(F)F)cc4)c(Br)o3)n1[B-]2(F)F (stereo not shown)")
6.17

----------
measured_target: UniProtKB A0A0H3GRR0
experiment_description: Fluorescence anisotropy binding of BOFP to KpFtsZ
condition_parameters: 37 °C; 50 mM Tris-HCl (pH 7.6), 50 mM KCl; 0.1 µM BOFP; read-out: Kd - 37 °C
pKd: −log10 of the molar value.
reported_metric: pKd

>>> value_measured("CC1=CC(C)=[N+]2C1=Cc1ccc(CCC(=O)OCC(Oc3ccc(F)c(C(N)=O)c3F)c3nc(-c4ccc(C(F)(F)F)cc4)c(Br)o3)n1[B-]2(F)F (stereo not shown)")
6.09

----------
measured_target: S. pneumoniae (SpnFtsZ) (Streptococcus pneumoniae, UniProt A0A0H2ZNE0)
Sequence (A0A0H2ZNE0 whole entry): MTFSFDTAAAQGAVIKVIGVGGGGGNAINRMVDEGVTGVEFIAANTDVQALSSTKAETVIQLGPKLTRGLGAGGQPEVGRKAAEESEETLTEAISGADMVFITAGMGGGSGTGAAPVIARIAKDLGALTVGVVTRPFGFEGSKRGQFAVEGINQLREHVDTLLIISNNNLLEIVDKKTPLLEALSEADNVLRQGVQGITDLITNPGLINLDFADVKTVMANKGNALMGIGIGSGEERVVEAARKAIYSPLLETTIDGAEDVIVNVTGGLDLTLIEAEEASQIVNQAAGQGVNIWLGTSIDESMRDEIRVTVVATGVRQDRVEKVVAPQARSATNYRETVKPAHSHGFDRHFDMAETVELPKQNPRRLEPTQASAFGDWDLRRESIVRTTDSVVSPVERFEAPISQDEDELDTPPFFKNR
experiment_description: Fluorescence anisotropy binding of BOFP to SpnFtsZ
condition_parameters: 37 °C; 50 mM Tris-HCl (pH 7.6), 50 mM KCl; 0.1 µM BOFP; read-out: Kd - 37 °C
reported_metric: Kd (µM)

>>> value_measured("CC1=CC(C)=[N+]2C1=Cc1ccc(CCC(=O)OCC(Oc3ccc(F)c(C(N)=O)c3F)c3nc(-c4ccc(C(F)(F)F)cc4)c(Br)o3)n1[B-]2(F)F (stereo not shown)")
3.81

----------
measured_target: S. aureus (SaFtsZ) (Staphylococcus aureus)
Construct: 6xHis (C); made in house; host or cells: E. coli BLR (DE3), pET-22b(+)
Sequence (P0A031 whole entry): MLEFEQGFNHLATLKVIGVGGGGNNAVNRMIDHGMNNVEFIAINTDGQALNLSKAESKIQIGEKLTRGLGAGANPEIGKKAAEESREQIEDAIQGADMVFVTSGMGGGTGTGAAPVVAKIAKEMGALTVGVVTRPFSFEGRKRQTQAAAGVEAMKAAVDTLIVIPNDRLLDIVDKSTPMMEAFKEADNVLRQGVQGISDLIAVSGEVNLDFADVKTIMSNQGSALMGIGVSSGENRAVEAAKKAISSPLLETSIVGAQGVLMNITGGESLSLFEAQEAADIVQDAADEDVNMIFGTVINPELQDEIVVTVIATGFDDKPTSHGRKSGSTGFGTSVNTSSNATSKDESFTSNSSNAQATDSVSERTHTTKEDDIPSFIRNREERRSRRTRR
experiment_description: biochemical
Format: binding
condition_parameters: 15 °C; 50 mM Tris-HCl (pH 7.6), 50 mM KCl; 0.1 µM BOFP; read-out: Kd - 15 °C
reported_metric: Kd (nM)

>>> value_measured("CC1=CC(C)=[N+]2C1=Cc1ccc(CCC(=O)OCC(Oc3ccc(F)c(C(N)=O)c3F)c3nc(-c4ccc(C(F)(F)F)cc4)c(Br)o3)n1[B-]2(F)F (stereo not shown)")
880

----------
measured_target: K. pneumoniae (KpFtsZ) (Klebsiella pneumoniae)
Sequence (A0A0H3GRR0 entry or part of it): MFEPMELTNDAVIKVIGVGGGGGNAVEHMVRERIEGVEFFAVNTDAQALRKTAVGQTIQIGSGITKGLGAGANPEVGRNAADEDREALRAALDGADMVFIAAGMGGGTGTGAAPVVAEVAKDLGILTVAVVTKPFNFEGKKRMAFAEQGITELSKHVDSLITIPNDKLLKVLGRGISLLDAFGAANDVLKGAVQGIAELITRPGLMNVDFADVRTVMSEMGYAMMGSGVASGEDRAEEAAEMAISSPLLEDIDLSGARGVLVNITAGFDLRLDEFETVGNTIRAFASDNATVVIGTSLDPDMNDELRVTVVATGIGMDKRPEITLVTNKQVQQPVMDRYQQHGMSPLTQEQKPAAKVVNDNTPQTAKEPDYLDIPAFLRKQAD
experiment_description: Fluorescence anisotropy binding of BOFP to KpFtsZ
condition_parameters: 25 °C; 50 mM Tris-HCl (pH 7.6), 50 mM KCl; 0.1 µM BOFP; read-out: Kd - 25 °C
reported_metric: Kd (µM)

>>> value_measured("CC1=CC(C)=[N+]2C1=Cc1ccc(CCC(=O)OCC(Oc3ccc(F)c(C(N)=O)c3F)c3nc(-c4ccc(C(F)(F)F)cc4)c(Br)o3)n1[B-]2(F)F (stereo not shown) [BOFP]")
0.58

----------
measured_target: E. faecalis (EfsFtsZ) (Enterococcus faecalis)
Sequence (O08439 whole entry): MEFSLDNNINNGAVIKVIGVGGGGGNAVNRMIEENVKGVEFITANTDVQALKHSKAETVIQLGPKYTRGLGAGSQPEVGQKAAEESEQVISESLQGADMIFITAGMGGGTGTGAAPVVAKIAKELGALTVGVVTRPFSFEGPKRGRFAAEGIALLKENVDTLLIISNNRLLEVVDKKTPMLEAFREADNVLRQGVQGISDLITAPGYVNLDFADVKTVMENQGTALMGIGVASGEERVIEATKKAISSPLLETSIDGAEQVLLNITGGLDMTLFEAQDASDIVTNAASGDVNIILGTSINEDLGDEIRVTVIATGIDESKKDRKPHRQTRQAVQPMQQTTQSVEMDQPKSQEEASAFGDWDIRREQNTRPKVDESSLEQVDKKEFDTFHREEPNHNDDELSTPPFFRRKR
experiment_description: Fluorescence anisotropy binding of BOFP to EfsFtsZ
condition_parameters: Kd - 37 °C, 37 °C; 50 mM Tris-HCl (pH 7.6), 50 mM KCl; 0.1 µM BOFP
Description: Fluorescence anisotropy experiments were performed using an AVIV model ATF105 spectrofluorometer at 15, 25, or 37 °C. […] After each protein addition, the samples were equilibrated for 3 minutes, whereupon the fluorescence anisotropy was measured. […] The binding free energy (ΔG) at temperature T was derived from the corresponding Kd value determined at T using the following relationship:2 ΔG=−RTln(1/Kd) […]
pKd: −log10 of the molar value.
reported_metric: pKd

>>> value_measured("CC1=CC(C)=[N+]2C1=Cc1ccc(CCC(=O)OCC(Oc3ccc(F)c(C(N)=O)c3F)c3nc(-c4ccc(C(F)(F)F)cc4)c(Br)o3)n1[B-]2(F)F (stereo not shown)")
5.34

----------
measured_target: S. pyogenes (SpyFtsZ) (Streptococcus pyogenes, UniProt Q99YV7)
experiment_description: Fluorescence anisotropy binding of BOFP to SpyFtsZ
condition_parameters: 37 °C; 50 mM Tris-HCl (pH 7.6), 50 mM KCl; 0.1 µM BOFP; read-out: Kd - 37 °C
pKd: −log10 of the molar value.
reported_metric: pKd

>>> value_measured("CC1=CC(C)=[N+]2C1=Cc1ccc(CCC(=O)OCC(Oc3ccc(F)c(C(N)=O)c3F)c3nc(-c4ccc(C(F)(F)F)cc4)c(Br)o3)n1[B-]2(F)F (stereo not shown)")
5.81

----------
measured_target: UniProt Q3Y2I1
Sequence (Q3Y2I1 1-413): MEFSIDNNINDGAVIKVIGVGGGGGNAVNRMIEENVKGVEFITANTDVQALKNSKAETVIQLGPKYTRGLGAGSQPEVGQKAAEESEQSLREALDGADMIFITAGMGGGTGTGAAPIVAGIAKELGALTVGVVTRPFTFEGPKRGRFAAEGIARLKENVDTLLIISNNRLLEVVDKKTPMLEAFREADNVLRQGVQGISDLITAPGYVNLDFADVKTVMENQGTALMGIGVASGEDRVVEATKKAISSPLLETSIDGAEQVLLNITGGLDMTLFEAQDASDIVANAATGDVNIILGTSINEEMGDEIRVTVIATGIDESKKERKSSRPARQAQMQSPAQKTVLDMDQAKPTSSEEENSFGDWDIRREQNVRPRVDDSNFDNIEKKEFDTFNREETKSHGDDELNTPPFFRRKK
experiment_description: Fluorescence anisotropy binding of BOFP to EfmFtsZ
condition_parameters: 25 °C; 50 mM Tris-HCl (pH 7.6), 50 mM KCl; 0.1 µM BOFP; read-out: Kd - 25 °C
pKd: −log10 of the molar value.
reported_metric: pKd

>>> value_measured("CC1=CC(C)=[N+]2C1=Cc1ccc(CCC(=O)OCC(Oc3ccc(F)c(C(N)=O)c3F)c3nc(-c4ccc(C(F)(F)F)cc4)c(Br)o3)n1[B-]2(F)F (stereo not shown)")
5.58
